Sourced from ChEMBL document CHEMBL4387700

Test: Half life in Sprague-Dawley rat at 1 mg/kg, iv by HPLC-MS/MS analysis
Type: ADME, organism-based
Settings: in vivo
measured-metric: half-life (h)
State the answer as a number, implicitly in h.

Req: Query (compound): O=C(N[C@@H](C(=O)N1CCC[C@H]1c1ncc(-c2ccc(-c3ccc(-c4cnc([C@@H]5CCCN5C(=O)[C@H](NC(=O)C5CC5)c5ccccc5)s4)cc3)cc2)s1)c1ccccc1)C1CC1 ; field requested: half-life
Resp: 18.3

* * *

Assay: Half life in Sprague-Dawley rat at 5 mg/kg, po by HPLC-MS/MS analysis
Assay type: ADME, organism-based
Conditions: in vivo
measured-metric: half-life (h)
Report the value in h with no unit label.

Req: What measured half-life goes with O=C(N[C@@H](C(=O)N1CCC[C@H]1c1ncc(-c2ccc(-c3ccc(-c4cnc([C@@H]5CCCN5C(=O)[C@H](NC(=O)C5CC5)c5ccccc5)s4)cc3)cc2)s1)c1ccccc1)C1CC1 ?
Resp: 20.4

* * *

Assay: AUC in Beagle dog at 0.5 mg/kg, po by HPLC-MS/MS analysis
Format: ADME, organism-based, Canis lupus familiaris
Conditions: in vivo
measured-metric: AUC (ng·h/mL)
Please respond with the number in ng·h/mL and leave the unit unwritten.

Req: Item O=C(N[C@@H](C(=O)N1CCC[C@H]1c1ncc(-c2ccc(-c3ccc(-c4cnc([C@@H]5CCCN5C(=O)[C@H](NC(=O)C5CC5)c5ccccc5)s4)cc3)cc2)s1)c1ccccc1)C1CC1 has what recorded AUC?
Resp: 1620

* * *

Assay: AUC in Sprague-Dawley rat at 1 mg/kg, iv by HPLC-MS/MS analysis
Type: ADME, organism-based
Conditions: in vivo
measured-metric: AUC (ng·h/mL)
Express the result in ng·h/mL but write the number alone.

Req: Record request: AUC value, item O=C(N[C@@H](C(=O)N1CCC[C@H]1c1ncc(-c2ccc(-c3ccc(-c4cnc([C@@H]5CCCN5C(=O)[C@H](NC(=O)C5CC5)c5ccccc5)s4)cc3)cc2)s1)c1ccccc1)C1CC1
Resp: 16300

* * *

Experiment: AUC in Beagle dog at 0.1 mg/kg, iv by HPLC-MS/MS analysis
Type: ADME, organism-based, Canis lupus familiaris
Details: in vivo
measured-metric: AUC (ng·h/mL)
A number alone suffices; assume ng·h/mL.

Req: For the molecule shown here, O=C(N[C@@H](C(=O)N1CCC[C@H]1c1ncc(-c2ccc(-c3ccc(-c4cnc([C@@H]5CCCN5C(=O)[C@H](NC(=O)C5CC5)c5ccccc5)s4)cc3)cc2)s1)c1ccccc1)C1CC1 , give the reported AUC.
Resp: 1390

* * *

Assay: Tmax in Beagle dog at 0.5 mg/kg, po by HPLC-MS/MS analysis
Format: ADME, organism-based, Canis lupus familiaris
Conditions: in vivo
measured-metric: Tmax (h)
Your answer is read as h, so omit the unit and give the number.

Req: Which Tmax is listed for O=C(N[C@@H](C(=O)N1CCC[C@H]1c1ncc(-c2ccc(-c3ccc(-c4cnc([C@@H]5CCCN5C(=O)[C@H](NC(=O)C5CC5)c5ccccc5)s4)cc3)cc2)s1)c1ccccc1)C1CC1 ?
Resp: 2.5

* * *

Assay: Half life in Beagle dog at 0.5 mg/kg, po by HPLC-MS/MS analysis
Format: ADME, organism-based, Canis lupus familiaris
Details: in vivo
measured-metric: half-life (h)
The answer is to be given in h; state only the numeric part.

Req: Name the recorded half-life for O=C(N[C@@H](C(=O)N1CCC[C@H]1c1ncc(-c2ccc(-c3ccc(-c4cnc([C@@H]5CCCN5C(=O)[C@H](NC(=O)C5CC5)c5ccccc5)s4)cc3)cc2)s1)c1ccccc1)C1CC1 .
Resp: 21.4

* * *

Assay: Tmax in Sprague-Dawley rat at 5 mg/kg, po by HPLC-MS/MS analysis
Format: ADME, organism-based
Details: in vivo
measured-metric: Tmax (h)
API: value field is a number in h; no unit string.

Req: // Tmax lookup, key: O=C(N[C@@H](C(=O)N1CCC[C@H]1c1ncc(-c2ccc(-c3ccc(-c4cnc([C@@H]5CCCN5C(=O)[C@H](NC(=O)C5CC5)c5ccccc5)s4)cc3)cc2)s1)c1ccccc1)C1CC1
Resp: 3.3

* * *

Test: Plasma clearance in Sprague-Dawley rat at 1 mg/kg, iv by HPLC-MS/MS analysis
Assay type: ADME, organism-based
measured-metric: clearance (mL/min/kg)
# value in mL/min/kg; strip the unit string

Req: Which clearance value is on record for O=C(N[C@@H](C(=O)N1CCC[C@H]1c1ncc(-c2ccc(-c3ccc(-c4cnc([C@@H]5CCCN5C(=O)[C@H](NC(=O)C5CC5)c5ccccc5)s4)cc3)cc2)s1)c1ccccc1)C1CC1 ?
Resp: 1.1

* * *

Test: AUC in Sprague-Dawley rat at 5 mg/kg, po by HPLC-MS/MS analysis
Format: ADME, organism-based
Conditions: in vivo
measured-metric: AUC (ng·h/mL)
Write the answer as a number in ng·h/mL, unit excluded.

Req: Given the entry O=C(N[C@@H](C(=O)N1CCC[C@H]1c1ncc(-c2ccc(-c3ccc(-c4cnc([C@@H]5CCCN5C(=O)[C@H](NC(=O)C5CC5)c5ccccc5)s4)cc3)cc2)s1)c1ccccc1)C1CC1 , report its measured AUC.
Resp: 14500
